tested on: MDA-MB-231 breast; assay: NCI tumour cell line growth inhibition, 48 h
In this section, each of the molecules is paired with its reported TGI.

MOLECULE	UNIT_NAME	COMPARISON_OPERATOR	TGI
Cc1ccc(S(=O)(=O)Oc2ccc3c4c(c(=O)oc3c2)CCCCC4)cc1	µM	>	100
COc1ccc2cc(C(=O)/C=C/c3cccc(Cl)c3Cl)ccc2c1	µM	=	39.6
Cn1ccc(=Nc2ccc(NC(=O)c3ccc(N=c4ccn(C)c5ccc([N+](=O)[O-])cc45)cc3)cc2)cc1	µM	>	100
CS(=O)(=O)N1CCN(Cc2cc3nc(-c4cccc5[nH]ncc45)nc(N4CCOCC4)c3s2)CC1 (tested in a mixture with another compound)	µM	>	100
CO[C@H]1[C@H](O)[C@H](O[C@H]2CC[C@@]3(C)[C@H](CC[C@@H]4[C@@H]3CC[C@]3(C)[C@@H](C5=CC(=O)OC5)CC[C@]43O)C2)O[C@@H](C)[C@@H]1O	µM	=	0.00907
COc1cc(NN=C(c2ccc(O)cc2)c2ccc(O)cc2)c([N+](=O)[O-])cc1[N+](=O)[O-]	µM	=	25.5
COc1cc2c3c(n(CCN)c(=O)c2cc1OC)-c1cc2c(cc1C3=O)OCO2	µM	=	0.84
CC1=C/C(=N/N2C(=O)/C(=C/c3ccc(Cl)cc3)N=C2c2ccccc2)CC(C)(C)C1	µM	>	100

----------
system: OVCAR-3 ovarian; experiment: NCI tumour cell line growth inhibition, 48 h; in the data active = GI50 below about 0.43 µM; inactive = the rest
Labels: 1.0 for active, 0.0 for inactive

COMPOUND	SYSTEM_NAME	DISCRETE_LABEL
Nc1ccn([C@H]2C[C@@H](O)[C@@H](CO)S2)c(=O)n1	OVCAR-3 ovarian	0.0
COc1cc2c3c(n(CCCN)c(=O)c2cc1OC)-c1ccc(F)cc1C3=O	OVCAR-3 ovarian	0.0
COC(=O)[C@]12CC[C@@H](C)[C@H](C)[C@@H]1C1=CC[C@@H]3[C@@]4(C)C(C=O)=C[C@@](C)(COC(C)=O)[C@@H]4[C@H](O)C[C@@]3(C)[C@]1(C)CC2	OVCAR-3 ovarian	0.0
COc1ccc2cc(C(=O)/C=C/c3cccc(Cl)c3Cl)ccc2c1	OVCAR-3 ovarian	0.0
C#CCN1CCN(C(=S)N/N=C(\C)c2ccccn2)CC1	OVCAR-3 ovarian	1.0
Nc1nc2c(c3ncccc13)C(c1cccc(Cl)c1)Cc1ncccc1-2 (stereo not given)	OVCAR-3 ovarian	0.0
COc1c2ccccc2c(O)c2c(=O)c(C(=O)O)cn(C)c12	OVCAR-3 ovarian	0.0
Cc1ccc(N=C2CSc3nnc(-c4csc5c4CCCC5)n3N2)cc1	OVCAR-3 ovarian	1.0
N#C/C(=C\c1ccc(Br)cc1)n1nnc2cccc(F)c21	OVCAR-3 ovarian	0.0
Nc1nc2ccc([C@@H]3Nc4ccc5[nH]ncc5c4[C@H]4[C@H]5CCC(C5)[C@H]43)cc2s1	OVCAR-3 ovarian	1.0

----------
Measured TGI, listed per entry for reference.
system: SF-295 CNS; assay: NCI tumour cell line growth inhibition, 48 h

COMPOUND	TGI
C=C(C)CCC1CCCCC(CN(C)C)C1=O (centres undefined)	> 100 µM
CC(CN)[C@@H]1CC[C@]2(CO)CC[C@]3(C)[C@H](CC[C@@H]4[C@@]5(C)CCC(NCCO)C(C)(C)[C@@H]5CC[C@]43C)[C@@H]12 (some centres undefined)	3.4 µM
CC(C)(C)NC(NC(C)(C)C)=C(C(Cl)=C(Cl)Cl)[N+](=O)[O-]	> 100 µM
Oc1[nH]c2ccccc2c1N=NC1=NCCCCN1	> 100 µM
O=C(O)c1c(CC(Cc2ccc3c(c2)CCCC3)C(=O)O)ccc2c1CCCC2 (centres undefined)	> 100 µM
COC(=O)C1=NN2c3ccccc3C(=O)OCCC2C1 (centres undefined)	> 100 µM
O=C(CCCCCCCCC(=O)NN1C(=O)/C(=C\c2ccc(O)c(O)c2)SC1c1c(O)ccc2ccccc12)NN1C(=O)C(=Cc2ccc(O)c(O)c2)SC1c1c(O)ccc2ccccc12 (centres undefined)	> 100 µM
COc1cc2c3c(n(CCN)c(=O)c2cc1OC)-c1cc2c(cc1C3=O)OCO2	2.09 µM
O=S(=O)(O)CCS	> 100 µM
